- testedOn: RORγ (Homo sapiens, UniProt P51449)
- Sequence (P51449 269-508 limits assumed): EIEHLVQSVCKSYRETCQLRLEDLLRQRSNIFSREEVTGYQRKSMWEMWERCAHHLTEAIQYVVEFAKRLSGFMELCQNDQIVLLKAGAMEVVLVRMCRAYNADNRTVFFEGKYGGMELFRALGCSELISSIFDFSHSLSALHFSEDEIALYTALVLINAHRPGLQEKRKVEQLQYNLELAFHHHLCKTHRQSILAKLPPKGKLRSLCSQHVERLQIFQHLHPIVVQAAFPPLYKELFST
- assay: RORγ GAL4 reporter gene assay
- runParameters: mean pIC50, inhibition of RORγ (GAL4-RORγ-LBD) in 293FT cells, luciferase readout, overnight incubation
measuredAttribute: IC50

See these solved cases before continuing.
compound	IC50
CCCC(O)(c1ccc(NC(=O)Cc2ccc(S(=O)(=O)CC)cc2)cc1)C(F)(F)F (stereo not drawn) [Example 63]	≤ 1000 nM
O=C(Nc1ccc(C(O)(C(F)(F)F)C(F)(F)F)cc1)C(=O)c1ccc(S(=O)(=O)CC2CC2)cc1 [Example 102]	≤ 1000 nM

For each of the compounds below, state IC50.
1. Nc1cc(C(O)(C(F)(F)F)C(F)(F)F)ccc1NC(=O)Cc1ccc(S(=O)(=O)CC2CC2)cc1 [Example 57]
2. O=C(Cc1ccc(S(=O)(=O)NC2CC2)cc1)Nc1ccc(C(O)(C(F)(F)F)C(F)(F)F)cc1F [Example 35]
3. CCCCOC(c1ccc(NC(=O)Cc2ccc(S(=O)(=O)CC3CC3)cc2)cc1)(C(F)(F)F)C(F)(F)F [Example 52]
4. CCS(=O)(=O)c1ccc(CC(=O)Nc2ccc(C(O)(C(F)(F)F)C(F)(F)F)c(C)c2)cc1 [Example 29]
5. COc1cc(NC(=O)Cc2ccc(S(=O)(=O)CC3CC3)cc2)ccc1C(O)(C(F)(F)F)C(F)(F)F [Example 56]
6. O=C(Cc1cccc(S(=O)(=O)NC2CC2)c1)Nc1ccc(C(O)(C(F)(F)F)C(F)(F)F)cc1F [Example 40]

Reply text:
1. ≤ 1000 nM
2. ≤ 100 nM
3. ≤ 100 nM
4. ≤ 100 nM
5. ≤ 1000 nM
6. ≤ 1000 nM

For each of the compounds below, state IC50.
1. CC(C)(C)CC(O)(c1ccc(NC(=O)Cc2ccc(S(=O)(=O)NC3CC3)cc2)cc1)C(F)(F)F (stereo not drawn) [Example 94]
2. CCCCC(O)(c1ccc(NC(=O)Cc2ccc(S(=O)(=O)CC3CC3)cc2)cc1)C(F)(F)F (stereo not drawn) [Example 64]
3. CCS(=O)(=O)c1ccc(CC(=O)Nc2ccc(C(O)(CC(C)(C)C)C(F)(F)F)cc2)cc1 (stereo not drawn) [Example 96]
4. O=C(Cc1ccc(S(=O)(=O)CC2CC2)cc1)Nc1ccc(C(O)(c2ccccc2)C(F)(F)F)cc1 (stereo not drawn) [Example 88]
5. CC(O)(c1ccc(NC(=O)Cc2ccc(S(=O)(=O)NC3CC3)cc2)cc1)C(F)(F)F (stereo not drawn) [Example 78]
6. CCS(=O)(=O)c1ccc(CC(=O)Nc2ccc(C(O)(C(F)(F)F)C(F)(F)F)c(Cl)c2)cc1 [Example 84]
7. O=C(Cc1ccc(S(=O)(=O)CC2CC2)cc1)Nc1ccc(C(O)(C(F)(F)F)C(F)(F)F)cc1F [Example 46]

Reply text:
1: ≤ 100 nM; 2: ≤ 10 nM; 3: ≤ 100 nM; 4: ≤ 100 nM; 5: ≤ 1000 nM; 6: ≤ 1000 nM; 7: ≤ 10 nM

* * *

- testedOn: RORγ (Homo sapiens, UniProt P51449)
- assay: RORγ GAL4 reporter gene assay
- runParameters: mean pIC50, inhibition of RORγ (GAL4-RORγ-LBD) in 293FT cells, luciferase readout, overnight incubation
pIC50: −log10 of the molar value.
measuredAttribute: pIC50

See these solved cases before continuing.
molecule	pIC50
O=C(Cc1ccc(S(=O)(=O)NC2CC2)cc1)Nc1ccc(C(O)(C(F)(F)F)C(F)(F)F)cc1	≥ 7.00
Cc1cc(NC(=O)Cc2ccc(S(=O)(=O)NC3CC3)cc2)ccc1C(O)(C(F)(F)F)C(F)(F)F	≥ 7.00
O=C(Cc1ccc(S(=O)(=O)CC2CC2)cc1)Nc1ccc(C(O)(C(F)(F)F)C(F)(F)F)cc1Cl	≥ 7.00

# context switch: different compound, same pIC50
Sure, the documented pIC50 for CCS(=O)(=O)c1ccc(CC(=O)Nc2ccc(C(O)(C(F)(F)F)C(F)(F)F)cn2)cc1 is ≥ 6.00
